All values here come from paper PMC10590419.

measured-on: RSV L+P RdRp (Human respiratory syncytial virus A)
Sequence (P03421 whole entry): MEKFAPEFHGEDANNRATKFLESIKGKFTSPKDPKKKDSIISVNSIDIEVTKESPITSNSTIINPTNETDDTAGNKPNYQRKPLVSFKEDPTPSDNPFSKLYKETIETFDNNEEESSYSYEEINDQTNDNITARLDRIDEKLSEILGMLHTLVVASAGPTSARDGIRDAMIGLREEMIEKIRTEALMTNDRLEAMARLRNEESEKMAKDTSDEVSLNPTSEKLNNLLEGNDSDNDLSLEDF
Sequence (P28887 whole entry): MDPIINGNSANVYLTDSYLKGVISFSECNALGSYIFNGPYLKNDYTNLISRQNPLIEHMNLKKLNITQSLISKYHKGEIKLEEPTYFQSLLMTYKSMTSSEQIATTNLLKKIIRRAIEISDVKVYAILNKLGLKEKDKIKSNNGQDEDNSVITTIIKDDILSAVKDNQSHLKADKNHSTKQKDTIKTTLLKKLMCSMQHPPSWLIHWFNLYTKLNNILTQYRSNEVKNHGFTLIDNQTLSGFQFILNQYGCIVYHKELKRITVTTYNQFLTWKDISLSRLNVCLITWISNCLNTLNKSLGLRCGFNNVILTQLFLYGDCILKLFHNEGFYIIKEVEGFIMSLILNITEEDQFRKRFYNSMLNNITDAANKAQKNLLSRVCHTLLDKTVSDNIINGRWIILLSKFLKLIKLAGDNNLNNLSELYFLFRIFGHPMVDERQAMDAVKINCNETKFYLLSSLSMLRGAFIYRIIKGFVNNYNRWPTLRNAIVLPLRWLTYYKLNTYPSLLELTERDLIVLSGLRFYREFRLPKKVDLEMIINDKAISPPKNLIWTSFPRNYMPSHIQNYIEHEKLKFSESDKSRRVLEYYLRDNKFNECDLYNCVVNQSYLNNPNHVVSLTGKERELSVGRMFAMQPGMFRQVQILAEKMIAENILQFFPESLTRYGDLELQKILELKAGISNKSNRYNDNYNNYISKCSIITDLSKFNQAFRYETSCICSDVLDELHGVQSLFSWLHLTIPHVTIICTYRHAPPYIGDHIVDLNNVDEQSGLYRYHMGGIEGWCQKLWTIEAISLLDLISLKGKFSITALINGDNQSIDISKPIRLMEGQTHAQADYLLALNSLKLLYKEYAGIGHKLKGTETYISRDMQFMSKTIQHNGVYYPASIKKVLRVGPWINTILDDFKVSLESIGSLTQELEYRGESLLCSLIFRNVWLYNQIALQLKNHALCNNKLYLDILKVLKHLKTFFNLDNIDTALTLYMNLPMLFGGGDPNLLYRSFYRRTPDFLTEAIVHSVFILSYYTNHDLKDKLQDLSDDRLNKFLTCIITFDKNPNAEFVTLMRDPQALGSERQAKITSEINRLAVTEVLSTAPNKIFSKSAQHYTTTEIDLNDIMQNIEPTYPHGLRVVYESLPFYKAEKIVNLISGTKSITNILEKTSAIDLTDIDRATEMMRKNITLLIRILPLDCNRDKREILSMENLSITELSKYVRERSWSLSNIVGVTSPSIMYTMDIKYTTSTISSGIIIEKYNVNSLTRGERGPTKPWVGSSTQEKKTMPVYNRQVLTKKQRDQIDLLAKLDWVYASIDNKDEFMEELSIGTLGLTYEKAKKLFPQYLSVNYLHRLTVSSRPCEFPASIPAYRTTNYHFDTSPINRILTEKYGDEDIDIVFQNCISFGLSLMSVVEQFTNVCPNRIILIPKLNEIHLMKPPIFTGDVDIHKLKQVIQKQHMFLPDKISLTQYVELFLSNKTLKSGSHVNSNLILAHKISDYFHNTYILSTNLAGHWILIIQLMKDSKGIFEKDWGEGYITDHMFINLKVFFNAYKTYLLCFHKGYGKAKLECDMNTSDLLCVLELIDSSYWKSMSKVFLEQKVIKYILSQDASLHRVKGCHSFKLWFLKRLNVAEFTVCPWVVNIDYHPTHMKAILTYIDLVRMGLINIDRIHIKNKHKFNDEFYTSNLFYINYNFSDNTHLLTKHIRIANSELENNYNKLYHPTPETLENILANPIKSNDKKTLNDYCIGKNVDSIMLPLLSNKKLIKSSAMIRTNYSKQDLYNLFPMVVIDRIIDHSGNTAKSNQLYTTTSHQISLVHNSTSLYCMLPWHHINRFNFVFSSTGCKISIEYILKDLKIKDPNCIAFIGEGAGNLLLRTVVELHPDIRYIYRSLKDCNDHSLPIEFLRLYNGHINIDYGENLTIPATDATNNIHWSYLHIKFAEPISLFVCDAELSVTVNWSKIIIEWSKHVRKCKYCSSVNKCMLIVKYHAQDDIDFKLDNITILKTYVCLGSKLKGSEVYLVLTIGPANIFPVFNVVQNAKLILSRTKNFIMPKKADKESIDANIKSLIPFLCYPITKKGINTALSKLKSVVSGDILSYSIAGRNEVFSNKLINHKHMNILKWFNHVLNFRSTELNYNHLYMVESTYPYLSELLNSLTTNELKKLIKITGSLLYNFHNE
measurement-notes: Biotinylated primer extension Flashplate assay, recombinant RSV L+P
Format: biochemical, Human RSV (strain A2)
setup-conditions: RdRp activity, Flashplate (Fig. 1c); read-out: IC50
pIC50: −log10 of the molar value.

# smiles-str, measured-on, pIC50
rows = [
    ("COc1cc(C(=O)NC[C@](O)(c2cc(C(C)(C)O)c(F)c(-c3ccc(F)cc3)n2)C(F)(F)F)cc2cc(C)nnc12", "RSV L+P RdRp (Human respiratory syncytial virus A)", 9.17),
]

---

measured-on: Human DNA polymerase beta (Homo sapiens, UniProt P06746)
Construct: purchased CHIMERx
measurement-notes: DNA-dependent DNA polymerase activity
Format: biochemical
setup-conditions: DNA Pol β
pIC50: −log10 of the molar value.

# smiles-str, measured-on, pIC50
records = [
    ("COc1cc(C(=O)NC[C@](O)(c2cc(C(C)(C)O)c(F)c(-c3ccc(F)cc3)n2)C(F)(F)F)cc2cc(C)nnc12", "Human DNA polymerase beta (Homo sapiens, UniProt P06746)", "< 4.00"),
]
